target: furin (Homo sapiens, UniProt P09958)
Sequence (P09958 108-794): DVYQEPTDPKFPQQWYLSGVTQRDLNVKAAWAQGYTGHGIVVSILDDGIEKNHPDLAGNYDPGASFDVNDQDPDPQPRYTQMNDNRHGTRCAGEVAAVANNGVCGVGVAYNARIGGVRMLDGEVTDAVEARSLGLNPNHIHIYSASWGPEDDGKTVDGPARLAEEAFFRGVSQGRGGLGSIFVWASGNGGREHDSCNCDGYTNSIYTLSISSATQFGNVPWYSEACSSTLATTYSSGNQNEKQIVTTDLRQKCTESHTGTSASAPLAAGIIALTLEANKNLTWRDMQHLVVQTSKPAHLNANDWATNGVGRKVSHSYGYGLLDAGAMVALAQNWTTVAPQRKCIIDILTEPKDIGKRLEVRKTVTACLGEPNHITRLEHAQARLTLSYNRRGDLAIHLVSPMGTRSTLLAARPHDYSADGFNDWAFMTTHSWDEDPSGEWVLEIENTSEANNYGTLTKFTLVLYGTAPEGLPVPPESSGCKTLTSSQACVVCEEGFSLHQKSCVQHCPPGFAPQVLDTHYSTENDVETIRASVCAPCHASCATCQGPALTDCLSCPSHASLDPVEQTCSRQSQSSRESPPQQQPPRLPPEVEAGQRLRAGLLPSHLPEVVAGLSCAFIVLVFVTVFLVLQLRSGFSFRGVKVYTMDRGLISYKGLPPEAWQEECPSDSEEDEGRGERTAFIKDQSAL
protocolSummary: Vero/furin cell-based furin enzyme inhibitory assay
resultType: IC50 (µM)
# value in µM; strip the unit string

# IC50 lookup, item N=C(N)c1ccc(/N=N/Nc2ccc(C(=N)N)cc2)cc1 13.2
